The measurements presented in this section are drawn from ChEMBL document CHEMBL1137646.

Assay: Half life in plasma of HIV1-infected patient
Assay type: ADME, cell-free
Settings: human
Value kind: half-life (h)
Dear colleague, please return just the value in h, with no unit written.

Task: Returns the measured half-life for the input compound. Input: Cc1ccnc2c1NC(=O)c1cccnc1N2C1CC1
Result: 30

====

Assay: Half life in plasma of HIV1-infected patient administered as single dose
Format: ADME, cell-free
Conditions: human
Value kind: half-life (h)
Dear colleague, please return just the value in h, with no unit written.

Task: Returns the measured half-life for the input compound. Input: Cc1ccnc2c1NC(=O)c1cccnc1N2C1CC1
Result: 30
